Measured on: PARG (Homo sapiens)
Sequence (Q86W56 whole entry): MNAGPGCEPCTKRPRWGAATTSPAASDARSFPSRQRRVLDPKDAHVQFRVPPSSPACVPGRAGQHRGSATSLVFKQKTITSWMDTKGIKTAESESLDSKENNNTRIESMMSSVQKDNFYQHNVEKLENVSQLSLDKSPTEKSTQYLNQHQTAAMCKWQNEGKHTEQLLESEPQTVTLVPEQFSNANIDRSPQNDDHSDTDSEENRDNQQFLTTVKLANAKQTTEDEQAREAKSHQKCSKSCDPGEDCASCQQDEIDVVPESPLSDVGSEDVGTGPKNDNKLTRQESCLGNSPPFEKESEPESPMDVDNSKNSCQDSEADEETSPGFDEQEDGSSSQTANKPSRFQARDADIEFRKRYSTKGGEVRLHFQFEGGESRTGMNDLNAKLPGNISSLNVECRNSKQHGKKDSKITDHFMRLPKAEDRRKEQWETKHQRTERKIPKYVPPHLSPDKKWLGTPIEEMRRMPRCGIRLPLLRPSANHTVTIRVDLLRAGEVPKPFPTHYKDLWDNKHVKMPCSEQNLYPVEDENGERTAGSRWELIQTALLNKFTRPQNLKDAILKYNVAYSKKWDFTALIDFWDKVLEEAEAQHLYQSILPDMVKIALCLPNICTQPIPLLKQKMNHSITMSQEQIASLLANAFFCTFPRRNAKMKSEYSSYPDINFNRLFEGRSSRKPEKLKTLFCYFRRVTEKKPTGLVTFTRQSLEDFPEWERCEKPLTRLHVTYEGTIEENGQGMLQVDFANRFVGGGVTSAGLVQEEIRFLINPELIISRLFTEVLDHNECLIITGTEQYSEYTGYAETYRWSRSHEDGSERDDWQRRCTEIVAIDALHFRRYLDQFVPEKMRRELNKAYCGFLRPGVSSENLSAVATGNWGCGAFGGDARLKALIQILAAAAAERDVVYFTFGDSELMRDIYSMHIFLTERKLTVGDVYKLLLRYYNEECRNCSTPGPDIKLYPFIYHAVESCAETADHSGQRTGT
Assay overview: Biochemical assay (PARG, TFMU-ADPr substrate)
Condition parameters: PARG, TFMU-ADPr substrate
Quantity name: IC50

Compound	Assay result
COc1ccc(N(C)c2cc(S(=O)(=O)NC3(C#N)CC3)cn3c(-c4nnc(C(F)F)s4)ncc23)cc1 [Example 45]	135 nM
N#CC1(NS(=O)(=O)c2cc(N3CCN(C(=O)C4CC4(F)F)CC3)c3cnc(-c4nnc(C(F)(F)F)s4)n3c2)CC1 (stereo not shown) [Example 240]	13.2 nM
N#CC1(NS(=O)(=O)c2cc(N3CCN(C(=O)C(F)F)CC3)c3cnc(-c4nnc(C(F)(F)F)s4)n3c2)CC1 [Example 241]	24 nM
[2H]c1nc(-c2nnc(C(F)F)s2)n2cc(S(=O)(=O)NC3(C)COC3)cc(N3CCN(C(=O)C(C)C)CC3)c12 [Example 159]	0.46 nM
COc1ccc(C(=O)/C=C/C(=O)N2CCN(c3cc(S(=O)(=O)NC4CC4)cn4c(-c5nnc(C(F)(F)F)s5)ncc34)CC2)cc1 [Example 243]	871 nM
C[C@H]1CN(c2cc(S(=O)(=O)NC3(C)COC3)cn3c(-c4nnc(C(F)F)s4)ncc23)CCN1 [Example 181]	1.78 nM
CC1(NS(=O)(=O)c2cc(N3CCN(C(=O)C4(F)CNC4)CC3)c3cnc(-c4nnc(C(F)(F)F)s4)n3c2)CC1 [Example 317]	3.54 nM
C[C@H]1CN(c2cc(S(=O)(=O)NC3(C)COC3)cn3c(-c4nnc(C(F)F)s4)ncc23)C[C@H](C)O1 [Example 354]	0.27 nM
CC1(NS(=O)(=O)c2cc(N3CCNCC3)c3cnc(-c4nnc(C(F)F)s4)n3c2)CC1 [Example 341]	2.42 nM
CC1(NS(=O)(=O)c2cc(N3CCN(C(=O)[C@H]4CCN4)CC3)c3cnc(-c4nnc(C(F)(F)F)s4)n3c2)CC1 [Example 286]	3.98 nM
COC1(C(=O)N2CCN(c3cc(S(=O)(=O)NC4(C)CC4)cn4c(-c5nnc(C(F)F)s5)ncc34)C[C@H]2CF)CC1 [Example 200]	0.63 nM
O=S(=O)(NC1(CF)COC1)c1cc(N2CCC3(CC2)COC3)c2cnc(-c3nnc(C(F)(F)F)s3)n2c1 [Example 176]	4.37 nM
CC(C)C(=O)N1CCN(c2cc(S(=O)(=O)NC3(C#N)CC3)cn3c(-c4nnc(C(F)F)s4)ncc23)C[C@H]1C [Example 74]	6.61 nM
N#CC1(NS(=O)(=O)c2cc(N3CCN(C(=O)C4NCCS4)CC3)c3cnc(-c4nnc(C(F)(F)F)s4)n3c2)CC1 (stereo not shown) [Example 281]	66.1 nM
N#CC1(NS(=O)(=O)c2cc(N3CCN(C(=O)[C@@H]4CCN4)CC3)c3cnc(-c4nnc(C(F)(F)F)s4)n3c2)CC1 [Example 269]	79.4 nM
N#CC1(NS(=O)(=O)c2cc(N3CCC(c4nnco4)CC3)c3cnc(-c4nnc(C(F)(F)F)s4)n3c2)CC1 [Example 221]	43.7 nM
CC1(NS(=O)(=O)c2cc(N3CCN(C(=O)C4(OCCO)CC4)CC3)c3cnc(-c4nnc(C(F)(F)F)s4)n3c2)CC1 [Example 383]	0.25 nM
CC1(NS(=O)(=O)c2cc(N3CCN(C(=O)c4ncc[nH]4)CC3)c3cnc(-c4nnc(C(F)F)s4)n3c2)CC1 [Example 339]	3.16 nM
O=S(=O)(NC1(CF)CC1)c1cc(N2CCC(O)(C(F)(F)F)CC2)c2nnc(-c3nnc(C(F)F)s3)n2c1 [Example 115]	1.88 nM
N#CC1(NS(=O)(=O)c2cc(N3CCN(C(=O)C4(N)CC4)CC3)c3cnc(-c4nnc(C(F)(F)F)s4)n3c2)CC1 [Example 274]	41.7 nM
CC1(NS(=O)(=O)c2cc(N3CCN4C(=O)CCC4C3)c3cnc(-c4nnc(C(F)(F)F)s4)n3c2)COC1 (stereo not shown) [Example 186]	5.62 nM
[2H]c1nc(-c2nnc(C(F)F)s2)n2cc(S(=O)(=O)NC3(CF)COC3)cc(N3CCN(C(=O)C(C)C)CC3)c12 [Example 153]	5.34 nM
